B1: CPEB3 Ribozyme (parent)
chain: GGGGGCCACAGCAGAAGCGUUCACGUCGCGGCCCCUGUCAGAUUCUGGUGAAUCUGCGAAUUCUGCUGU

variants of: B1; assay: self-cleavage, relative activity (ratio to wild type); higher = more cleavage; co-transcriptional
Quick reference for self-cleavage among some variants
Reported property: self-cleavage

INSERT INTO results (variant_designation, reported_property, readout_number) VALUES
  ('G3A G17A', 'self-cleavage', 0.0767),
  ('U20A C22G', 'self-cleavage', 0.119),
  ('G19U C35G', 'self-cleavage', 0.199),
  ('G2U G56U', 'self-cleavage', 0.0789),
  ('C6A U53C', 'self-cleavage', 0.335),
  ('G30U U67A', 'self-cleavage', 0.735),
  ('A42G U67C', 'self-cleavage', 0.957),
  ('A13C C27A', 'self-cleavage', 0.145),
  ('U55G G65A', 'self-cleavage', 0.408),
  ('U43G C45G', 'self-cleavage', 0.907),
  ('A16C U20G', 'self-cleavage', 0.285),
  ('G14U A40G', 'self-cleavage', 0.425),
  ('U36C U64G', 'self-cleavage', 0.762),
  ('U21C C54U', 'self-cleavage', 0.883),
  ('G41C U43A', 'self-cleavage', 0.31),
  ('C24G A40C', 'self-cleavage', 0.198);

Origin of the recorded values: the RNAGym collection of RNA variant scans (doi:10.7554/elife.80360)
